# Tested on: Mycobacterium tuberculosis growing inside human THP-1 monocytes
# PROTOCOL SUMMARY: Intracellular viability assay (luciferase Mtb in THP-1 monocytes)
# Type: cell-based
# CONDITION DESCRIPTION: Mycobacterium tuberculosis, with clav, average, read-out: MIC50 μM (average with clav)
Counter-ions that a name gives are not always drawn.
Mark true (1) only for MIC50 values smaller than 2 µM; exact matches and larger values are false (0).

Example results:
COMPOUND	CLASS ASSIGNMENT
C[C@@H](O)[C@H]1C(=O)N2C(C(=O)O)=C(S[C@@H]3CN[C@H](C(=O)Nc4cccc(C(=O)O)c4)C3)[C@H](C)[C@H]12 [Ertapenem]	false (0)
CO[C@H]1CCC[C@H]2C1=C(C(=O)OC(C)OC(=O)OC1CCCCC1)N1C(=O)[C@H]([C@@H](C)O)[C@@H]21 (mixture of isomers) [Sanfetrinem cilexetil]	true (1)
CO[C@H]1CCC[C@H]2C1=C(C(=O)O)N1C(=O)[C@H]([C@@H](C)O)[C@@H]21 [Sanfetrinem (sodium salt)]	true (1)
C[C@@H](O)[C@H]1C(=O)N2C(C(=O)O)=C([C@H]3CCCO3)S[C@H]12 [Faropenem]	true (1)
C[C@@H](O)[C@H]1C(=O)N2C(C(=O)O)=C(S[C@@H]3CN[C@H](C(=O)N(C)C)C3)[C@H](C)[C@H]12 [Meropenem]	true (1)

Please turn your attention to the following entry.
Q. Below 2 µM on MIC50? Entry C[C@@H](O)[C@H]1C(=O)N2C(C(=O)O)=C(SC3CN(C4=NCCS4)C3)[C@H](C)[C@H]12 [Tebipenem]
A. true (1)
